FYI, the data here is from patent US7807701B2.

system: HDL cholesterol; assay: Blood HDL cholesterol increasing effect in normal hamster; assay type: in vivo; details: single oral dose 3 mg/kg, 8 hr after administration, versus solvent group, average values
Reported HDL cholesterol increase content (%) 8 (hr later) is given for each of the following compounds.
property-name: HDL cholesterol increase content (%) 8 (hr later)

compound="CCN(C[C@H]1CC[C@H](CC(=O)O)CC1)c1ccc(C(F)(F)F)cc1CN(Cc1cc(C(F)(F)F)cc(C(F)(F)F)c1)c1nnn(C)n1.Cl [Example 118]" observed_value=31.7
compound="CCCN(C[C@H]1CC[C@H](CC(=O)O)CC1)c1ccc(OC(F)(F)F)cc1CN(Cc1cc(C(F)(F)F)cc(C(F)(F)F)c1)c1nnn(C)n1.Cl [Example 158]" observed_value=23.7
compound="CCCN(C[C@H]1CC[C@H](CC(=O)O)CC1)c1ccc(C(F)(F)F)cc1CN(Cc1cc(C(F)(F)F)cc(C(F)(F)F)c1)c1nnn(C)n1.Cl [Example 154]" observed_value=22.4
compound="CCN(C[C@H]1CC[C@H](CC(=O)O)CC1)c1cc(C)c(C(F)(F)F)cc1CN(Cc1cc(C(F)(F)F)cc(C(F)(F)F)c1)c1nnn(C)n1.Cl [Example 142]" observed_value=31.9
compound="CCN(C[C@H]1CC[C@H](CC(=O)O)CC1)c1ccc(OC(F)(F)F)cc1CN(Cc1cc(C(F)(F)F)cc(C(F)(F)F)c1)c1nnn(C)n1.Cl [Example 115]" observed_value=30.7
compound="CCCN(C[C@H]1CC[C@H](CC(=O)O)CC1)c1cc(C)c(C(F)(F)F)cc1CN(Cc1cc(C(F)(F)F)cc(C(F)(F)F)c1)c1nnn(C)n1.Cl [Example 157]" observed_value=27.1
compound="CCN(C[C@H]1CC[C@H](CC(=O)O)CC1)c1cc(C(F)(F)F)c(C)cc1CN(Cc1cc(C(F)(F)F)cc(C(F)(F)F)c1)c1nnn(C)n1.Cl [Example 143]" observed_value=21.3

* * *

Listed compounds paired with reported HDL cholesterol increase content (%) 4 (hr later)
test system: HDL cholesterol; assay: Blood HDL cholesterol increasing effect in normal hamster; format: in vivo; conditions: single oral dose 3 mg/kg, 4 hr after administration, versus solvent group, average values
property-name: HDL cholesterol increase content (%) 4 (hr later)

smiles_data=CCN(C[C@H]1CC[C@H](CC(=O)O)CC1)c1cc(C)c(C(F)(F)F)cc1CN(Cc1cc(C(F)(F)F)cc(C(F)(F)F)c1)c1nnn(C)n1.Cl assayed_target="HDL cholesterol" observed_value=20.3
smiles_data=CCN(C[C@H]1CC[C@H](CC(=O)O)CC1)c1ccc(OC(F)(F)F)cc1CN(Cc1cc(C(F)(F)F)cc(C(F)(F)F)c1)c1nnn(C)n1.Cl assayed_target="HDL cholesterol" observed_value=23.3
smiles_data=CCN(C[C@H]1CC[C@H](CC(=O)O)CC1)c1cc(C(F)(F)F)c(C)cc1CN(Cc1cc(C(F)(F)F)cc(C(F)(F)F)c1)c1nnn(C)n1.Cl assayed_target="HDL cholesterol" observed_value=17.0
smiles_data=CCCN(C[C@H]1CC[C@H](CC(=O)O)CC1)c1cc(C)c(C(F)(F)F)cc1CN(Cc1cc(C(F)(F)F)cc(C(F)(F)F)c1)c1nnn(C)n1.Cl assayed_target="HDL cholesterol" observed_value=17.9
smiles_data=CCCN(C[C@H]1CC[C@H](CC(=O)O)CC1)c1ccc(OC(F)(F)F)cc1CN(Cc1cc(C(F)(F)F)cc(C(F)(F)F)c1)c1nnn(C)n1.Cl assayed_target="HDL cholesterol" observed_value=14.8
smiles_data=CCN(C[C@H]1CC[C@H](CC(=O)O)CC1)c1ccc(C(F)(F)F)cc1CN(Cc1cc(C(F)(F)F)cc(C(F)(F)F)c1)c1nnn(C)n1.Cl assayed_target="HDL cholesterol" observed_value=21.1
smiles_data=CCCN(C[C@H]1CC[C@H](CC(=O)O)CC1)c1ccc(C(F)(F)F)cc1CN(Cc1cc(C(F)(F)F)cc(C(F)(F)F)c1)c1nnn(C)n1.Cl assayed_target="HDL cholesterol" observed_value=13.3
